Reported % inhibition Apol 40' values for the following molecules.
Measured on: UniProt:Q8ILY1
Sequence (Q8ILY1 entry or part of it): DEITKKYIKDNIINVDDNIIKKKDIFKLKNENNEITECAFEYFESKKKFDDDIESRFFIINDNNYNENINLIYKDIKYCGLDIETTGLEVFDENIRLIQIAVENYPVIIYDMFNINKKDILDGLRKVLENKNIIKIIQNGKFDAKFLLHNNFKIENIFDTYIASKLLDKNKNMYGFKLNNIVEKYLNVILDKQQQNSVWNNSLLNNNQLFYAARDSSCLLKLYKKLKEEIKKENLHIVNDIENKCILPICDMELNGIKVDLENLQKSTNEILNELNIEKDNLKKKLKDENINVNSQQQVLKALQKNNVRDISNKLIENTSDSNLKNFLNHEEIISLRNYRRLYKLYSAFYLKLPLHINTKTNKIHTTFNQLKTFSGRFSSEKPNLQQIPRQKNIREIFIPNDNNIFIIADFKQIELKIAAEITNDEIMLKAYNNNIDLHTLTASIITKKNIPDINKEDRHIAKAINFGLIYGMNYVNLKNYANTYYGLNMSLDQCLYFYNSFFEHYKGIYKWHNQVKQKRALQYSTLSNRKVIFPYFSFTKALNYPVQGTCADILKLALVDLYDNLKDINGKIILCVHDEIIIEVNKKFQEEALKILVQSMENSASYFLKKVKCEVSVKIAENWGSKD
Experiment description: Fluorescence-based high-throughput DNA polymerase assay (molecular beacon), primary screen and dose-response;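 note: compound concentration given in µM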
Assay type: biochemical
Condition info: DRC-2; concentration 2.5; 40'
Kindly answer with a numeric value in %, unit omitted.

Some solved entries appear below for comparison.
INSERT INTO measurements (molecule, reported) VALUES
  ('Cc1ccc(C2=N/C(=C\c3ccc(I)o3)C(=O)O2)cc1[N+](=O)[O-] [KU0073890]', 19),
  ('CCCCCc1c2c(cc(O)c1C(=O)O)OC(=O)c1c(cc(OC)cc1C(=O)CCCC)O2 [Molecule 24]', 14),
  ('O=C(O)c1nc(-c2ccccc2)nc2c1OCO2 [Molecule 45, OC(=O)c1nc(nc2c1OCO2)c1ccccc1]', 7),
  ('Oc1cccnc1/N=C/c1cc(I)cc(I)c1O [KU0073720]', 24),
  ('O=C(O)c1cc([N+](=O)[O-])c(N2CCN(c3cccc(C(F)(F)F)c3)CC2)c([N+](=O)[O-])c1 [KU0076747]', 10);

Q: Complete the entry with % inhibition Apol 40' for COc1cc(/C=C2\C(=O)N(c3ccc(C(=O)O)cc3)N=C2C(F)(F)F)ccc1OCC(C)C [KU0069072]
Ans: 4.27

Q: Note % inhibition Apol 40' for the molecule shown: Cc1ccnc(NS(=O)(=O)c2ccc(-n3cccc3)cc2)n1 [KU0034899]
Ans: 31

Q: Report % inhibition Apol 40' for COc1ccc(C=C2Oc3c(ccc4c3CN(Cc3ccco3)CO4)C2=O)c(OC)c1 [KU0199404]
Ans: 1.45

Measured values drawn from paper PMC9090415 for this set.
